# SUBJECT OF TEST: HEK293 cells with stable expression of the GRIN1 gene and tetracycline-inducible expression of the GRIN2B gene (NMDA receptor, NR2B) (Homo sapiens, UniProt Q13224)
# Sequence (Q13224 27-1484, other chains not shown): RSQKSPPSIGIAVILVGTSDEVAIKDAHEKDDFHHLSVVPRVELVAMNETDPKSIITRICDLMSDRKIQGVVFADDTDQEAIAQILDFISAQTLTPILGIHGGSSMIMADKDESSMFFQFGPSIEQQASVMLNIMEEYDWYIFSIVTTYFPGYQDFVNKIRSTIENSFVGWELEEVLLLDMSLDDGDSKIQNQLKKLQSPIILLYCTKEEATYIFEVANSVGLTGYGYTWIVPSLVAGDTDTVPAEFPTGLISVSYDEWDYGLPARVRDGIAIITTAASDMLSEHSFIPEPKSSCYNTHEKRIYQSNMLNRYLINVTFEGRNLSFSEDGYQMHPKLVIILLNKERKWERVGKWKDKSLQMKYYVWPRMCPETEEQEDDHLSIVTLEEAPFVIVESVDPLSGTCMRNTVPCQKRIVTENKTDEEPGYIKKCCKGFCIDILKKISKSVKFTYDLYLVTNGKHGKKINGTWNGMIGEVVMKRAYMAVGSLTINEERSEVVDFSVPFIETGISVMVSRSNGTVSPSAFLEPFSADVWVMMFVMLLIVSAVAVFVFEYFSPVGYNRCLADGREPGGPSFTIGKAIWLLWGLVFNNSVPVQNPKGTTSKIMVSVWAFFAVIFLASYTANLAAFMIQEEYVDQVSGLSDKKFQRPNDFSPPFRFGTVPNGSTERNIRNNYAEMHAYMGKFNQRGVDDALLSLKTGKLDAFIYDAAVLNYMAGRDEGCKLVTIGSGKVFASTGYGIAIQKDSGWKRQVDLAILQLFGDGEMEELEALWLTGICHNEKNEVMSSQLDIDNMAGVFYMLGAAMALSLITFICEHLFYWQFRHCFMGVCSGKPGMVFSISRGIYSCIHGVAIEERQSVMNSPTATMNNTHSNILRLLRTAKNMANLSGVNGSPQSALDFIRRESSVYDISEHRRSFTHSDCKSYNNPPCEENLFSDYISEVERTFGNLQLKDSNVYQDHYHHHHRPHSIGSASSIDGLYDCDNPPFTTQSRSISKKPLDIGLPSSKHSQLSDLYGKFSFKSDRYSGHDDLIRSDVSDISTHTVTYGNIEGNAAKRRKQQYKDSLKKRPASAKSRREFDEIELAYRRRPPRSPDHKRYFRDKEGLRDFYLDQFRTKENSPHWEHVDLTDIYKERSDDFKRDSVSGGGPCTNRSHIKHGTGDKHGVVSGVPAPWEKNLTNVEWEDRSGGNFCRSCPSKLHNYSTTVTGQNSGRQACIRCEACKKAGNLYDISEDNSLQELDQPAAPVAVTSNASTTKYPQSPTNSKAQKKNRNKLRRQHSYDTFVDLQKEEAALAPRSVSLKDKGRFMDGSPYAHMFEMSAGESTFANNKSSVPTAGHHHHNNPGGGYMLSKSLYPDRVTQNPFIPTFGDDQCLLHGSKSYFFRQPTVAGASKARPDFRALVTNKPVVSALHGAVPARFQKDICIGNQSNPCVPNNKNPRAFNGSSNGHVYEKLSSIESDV
# EXPERIMENTAL PROTOCOL: Fluo-8 Ca2+ flux assay: reversal of Ro 25-6981-mediated suppression of the Ca2+ response to co-agonist (glutamate/glycine); note: test concentration or dose not given here
# Format: cell-based
# MEASUREMENT PARAMETERS: reversal of the Ro 25-6981 suppression of the Ca2+ response to co-agonist (glutamate/glycine)
TEST READOUT: Response Recovered (%)
Give bare numbers, in %.

Examples with answers:
| MOLECULE | ENDPOINT VALUE |
| --- | --- |
| O=C(Cn1cnc2[nH]nc(-c3ccc(Cl)c(C(F)(F)F)c3)c2c1=O)N1CCC(F)C1 (stereo not shown) [Example 318] | 26 |
| CC1(F)CN(C(=O)Cn2ccc3[nH]cc(-c4ccc(F)c(C(F)(F)F)c4)c3c2=O)C1 [Example 222] | 86 |
| O=C(Cn1cc(-c2ccncc2)c2scc(-c3ccc(F)c(C(F)(F)F)c3)c2c1=O)N1CCCC1 [Example 105] | 22 |

# next molecule below
Lab note: O=C(Cn1cnc2[nH]cc(-c3ccc(Cl)cc3)c2c1=O)N1CCCC1 [Example 150] gave Response Recovered (%) of 31
